Let's look at some molecules and their measured pIC50.
# assay_target: ZAP-70 (Homo sapiens)
# Construct: endogenous in cells
# Sequence (P43403 1-619): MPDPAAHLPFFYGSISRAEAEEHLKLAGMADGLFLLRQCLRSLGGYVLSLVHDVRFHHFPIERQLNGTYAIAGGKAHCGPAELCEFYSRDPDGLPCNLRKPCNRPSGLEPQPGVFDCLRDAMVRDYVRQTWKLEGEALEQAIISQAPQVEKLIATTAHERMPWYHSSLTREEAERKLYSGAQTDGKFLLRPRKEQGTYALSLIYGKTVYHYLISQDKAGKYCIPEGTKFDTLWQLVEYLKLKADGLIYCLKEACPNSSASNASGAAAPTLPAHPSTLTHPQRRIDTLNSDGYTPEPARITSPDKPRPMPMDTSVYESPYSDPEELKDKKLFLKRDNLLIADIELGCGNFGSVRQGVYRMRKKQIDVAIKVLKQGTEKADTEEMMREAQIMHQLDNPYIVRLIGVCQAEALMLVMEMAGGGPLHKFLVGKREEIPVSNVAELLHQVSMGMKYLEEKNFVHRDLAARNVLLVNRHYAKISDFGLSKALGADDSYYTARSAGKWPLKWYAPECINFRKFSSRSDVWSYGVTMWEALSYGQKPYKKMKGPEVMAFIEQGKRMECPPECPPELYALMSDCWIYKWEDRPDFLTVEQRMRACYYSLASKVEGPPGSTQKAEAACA
# protocol_description: ZAP-70 kinobeads assay
# reported_conditions: competition with immobilized aminopyrido-pyrimidine ligand 24 in cell lysate; ZAP-70 detected by dot blot
pIC50: −log10 of the molar value.
readout_name: pIC50

>>> observed_measurement("COc1cc(Nc2ncc(F)c(Nc3ccccc3NS(C)(=O)=O)n2)ccc1N1CCCC1")
"6.00 to 7.00"
>>> observed_measurement("CS(=O)(=O)Nc1ccccc1Nc1nc(Nc2ccc(-n3cccn3)cc2)ncc1Cl")
"6.00 to 7.00"
>>> observed_measurement("CN1CCN(CCCOc2ccc(Nc3ncc(F)c(Nc4ccccc4NS(C)(=O)=O)n3)cc2)CC1")
"6.00 to 7.00"
>>> observed_measurement("COc1cc(Nc2ncc(F)c(Nc3cccc(C)c3NS(C)(=O)=O)n2)cc(OC)c1OC")
"6.00 to 7.00"
>>> observed_measurement("CS(=O)(=O)Nc1ccccc1Nc1nc(Nc2ccc3cn[nH]c3c2)ncc1F")
"6.00 to 7.00"
>>> observed_measurement("CS(=O)(=O)Nc1ccccc1Nc1nc(Nc2ccc(C#N)cc2)ncc1F")
"5.00 to 6.00"
>>> observed_measurement("CS(=O)(=O)Nc1ccccc1Nc1nc(Nc2ccc(NCCN3CCCC3)cc2)ncc1F")
"6.00 to 7.00"
>>> observed_measurement("CS(=O)(=O)Nc1ccccc1Nc1nc(Nc2ccc3nn[nH]c3c2)ncc1F")
"6.00 to 7.00"
>>> observed_measurement("Cc1cc(C)cc(Nc2ncc(C)c(Nc3ccccc3NS(C)(=O)=O)n2)c1")
"6.00 to 7.00"
>>> observed_measurement("Cc1nc(-c2ccc(Nc3ncc(F)c(Nc4ccccc4NS(C)(=O)=O)n3)cc2)cs1")
"5.00 to 6.00"
>>> observed_measurement("CN1CCN(CCOc2ccc(Nc3ncc(F)c(Nc4ccccc4NS(C)(=O)=O)n3)cc2)CC1")
"6.00 to 7.00"
>>> observed_measurement("COc1cc(Nc2ncc(F)c(Nc3cccc(C)c3N(C)S(C)(=O)=O)n2)cc(OC)c1OC")
"6.00 to 7.00"
>>> observed_measurement("CCN(CC)CCOc1cccc(Nc2ncc(Cl)c(Nc3ccccc3NS(C)(=O)=O)n2)c1")
"> 7.00"
>>> observed_measurement("COc1cc(Nc2ncc(C)c(Nc3ccccc3NS(C)(=O)=O)n2)cc(OC)c1OC")
"6.00 to 7.00"
>>> observed_measurement("CS(=O)(=O)Nc1ccccc1Nc1nc(Nc2ccc(OCCN3CCOCC3)cc2)ncc1F")
"6.00 to 7.00"
>>> observed_measurement("COc1cccc(Nc2ncc(F)c(Nc3ccccc3NS(C)(=O)=O)n2)c1")
"5.00 to 6.00"
>>> observed_measurement("CS(=O)(=O)Nc1ccccc1Nc1nc(Nc2cccc(OCCN3CCCC3=O)c2)ncc1Cl")
"6.00 to 7.00"

* * *

Let's look at some compounds and their measured IC50.
# assay_target: ZAP-70 (Homo sapiens)
# Construct: endogenous in cells
# Sequence (P43403 1-619): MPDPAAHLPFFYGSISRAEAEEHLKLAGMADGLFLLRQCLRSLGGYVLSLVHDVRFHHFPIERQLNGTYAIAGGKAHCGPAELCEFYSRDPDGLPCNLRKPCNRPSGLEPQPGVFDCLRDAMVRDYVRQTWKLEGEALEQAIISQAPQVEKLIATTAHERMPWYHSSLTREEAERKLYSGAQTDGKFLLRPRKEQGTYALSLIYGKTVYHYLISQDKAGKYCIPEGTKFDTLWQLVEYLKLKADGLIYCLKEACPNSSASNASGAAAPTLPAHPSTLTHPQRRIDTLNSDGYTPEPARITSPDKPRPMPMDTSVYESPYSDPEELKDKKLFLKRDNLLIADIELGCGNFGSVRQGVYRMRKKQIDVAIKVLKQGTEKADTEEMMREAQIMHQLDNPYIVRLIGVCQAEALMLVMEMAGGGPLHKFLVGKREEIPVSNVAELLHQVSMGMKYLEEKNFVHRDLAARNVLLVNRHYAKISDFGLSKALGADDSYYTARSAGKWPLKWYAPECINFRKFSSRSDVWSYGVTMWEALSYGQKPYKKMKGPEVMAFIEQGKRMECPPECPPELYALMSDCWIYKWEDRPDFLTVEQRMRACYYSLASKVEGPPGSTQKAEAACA
# protocol_description: ZAP-70 kinobeads assay
# reported_conditions: competition with immobilized aminopyrido-pyrimidine ligand 24 in cell lysate; ZAP-70 detected by dot blot
Structures can show the parent of a compound that is named as a salt.
readout_name: IC50

>>> observed_measurement("CS(=O)(=O)Nc1ccccc1Nc1nc(Nc2cccc(OC(F)F)c2)ncc1F [Example 26]")
"1 to 10 µM"
>>> observed_measurement("CN1CCN(CCCOc2cccc(Nc3ncc(Cl)c(Nc4ccccc4NS(C)(=O)=O)n3)c2)CC1 [Example 135]")
"< 0.1 µM"
>>> observed_measurement("COc1ccc(Nc2ncc(F)c(Nc3ccccc3N(C)S(C)(=O)=O)n2)cc1 [Example 108]")
"1 to 10 µM"
>>> observed_measurement("CS(=O)(=O)Nc1ccccc1Nc1nc(Nc2cccc(OCCN3CCCC3)c2)ncc1F [Example 95]")
"< 0.1 µM"
>>> observed_measurement("CS(=O)(=O)Nc1ccccc1Nc1nc(Nc2cccc(OCCO)c2)ncc1F [Example 78]")
"0.1 to 1 µM"
>>> observed_measurement("COc1cccc(Nc2nc(Nc3cc(OC)c(OC)c(OC)c3)ncc2F)c1NS(C)(=O)=O [Example 172]")
"0.1 to 1 µM"
>>> observed_measurement("COc1cc(Nc2ncc(F)c(Nc3cccc(F)c3NS(C)(=O)=O)n2)cc(OC)c1OC [Example 183]")
"0.1 to 1 µM"
>>> observed_measurement("COc1cc(Nc2nccc(Nc3cccc(C)c3NS(C)(=O)=O)n2)cc(OCCN2CCCCC2)c1 [Example 177, formate salt]")
"0.1 to 1 µM"
>>> observed_measurement("CS(=O)(=O)Nc1ccccc1Nc1nc(Nc2cccc(OCCN3CCCC3)c2)ncc1Cl [Example 140]")
"< 0.1 µM"
>>> observed_measurement("CS(=O)(=O)Nc1ccccc1Nc1nc(Nc2cccc(C(=O)NC3CC3)c2)ncc1F [Example 83]")
"1 to 10 µM"
>>> observed_measurement("COc1cc(Nc2ncc(Cl)c(Nc3ccccc3NS(C)(=O)=O)n2)ccc1OCCN1CCCC1 [Example 141]")
"< 0.1 µM"
>>> observed_measurement("COc1cc(Nc2ncc(F)c(Nc3ccccc3N(C)S(C)(=O)=O)n2)cc(OC)c1OC [Example 71]")
"0.1 to 1 µM"
>>> observed_measurement("COc1cc(Nc2ncc(F)c(Nc3ccccc3NS(=O)(=O)CCN(C)C)n2)cc(OC)c1OC [Example 61]")
"1 to 10 µM"
>>> observed_measurement("COc1ccc(Nc2ncc(F)c(Nc3ccccc3NS(C)(=O)=O)n2)cc1OC [Example 36]")
"0.1 to 1 µM"
>>> observed_measurement("CS(=O)(=O)Nc1ccccc1Nc1nc(Nc2ccc(OCCCN3CCCC3)cc2)ncc1F [Example 92]")
"0.1 to 1 µM"
>>> observed_measurement("CS(=O)(=O)Nc1ccccc1Nc1nc(Nc2ccc3c(c2)OCCO3)ncc1F [Example 4]")
"1 to 10 µM"
>>> observed_measurement("CS(=O)(=O)Nc1ccccc1Nc1nc(Nc2ccc(NC(=O)CN3CCCC3)cc2)ncc1Cl [Example 132]")
"0.1 to 1 µM"

* * *

# assay_target: ZAP-70 (Homo sapiens)
# Construct: endogenous in cells
# protocol_description: ZAP-70 kinobeads assay
# reported_conditions: competition with immobilized aminopyrido-pyrimidine ligand 24 in cell lysate; ZAP-70 detected by dot blot
Structures can show the parent of a compound that is named as a salt.
Let's look at some compounds and their measured IC50.
readout_name: IC50

>>> observed_measurement("COc1cc(Nc2ncc(F)c(Nc3cccc(C)c3NS(C)(=O)=O)n2)cc(OCC2CC2)c1OC")
"100 to 1000 nM"
>>> observed_measurement("CCN(c1ccccc1Nc1nc(Nc2ccc(OC)c(OC)c2)ncc1F)S(C)(=O)=O")
"1000 to 10000 nM"
>>> observed_measurement("CC(C)OC(=O)COc1ccc(Nc2ncc(Cl)c(Nc3ccccc3NS(C)(=O)=O)n2)cc1 [Example 143, hydrochloride]")
"100 to 1000 nM"
>>> observed_measurement("CS(=O)(=O)Nc1ccccc1Nc1nc(Nc2cccc(OCCN3CCCCC3)c2)ncc1F [Example 79, formate]")
"< 100 nM"
>>> observed_measurement("COc1cc(Nc2ncc(Cl)c(Nc3ccc4c(c3NS(C)(=O)=O)OCCO4)n2)cc(OC)c1OC")
"< 100 nM"
>>> observed_measurement("CS(=O)(=O)Nc1ccccc1Nc1nc(Nc2cccc(-n3cnnn3)c2)ncc1Cl")
"100 to 1000 nM"
>>> observed_measurement("CCN(c1ccccc1Nc1nc(Nc2ccc(OC)cc2)ncc1F)S(C)(=O)=O")
"100 to 1000 nM"
>>> observed_measurement("CN1CCN(C)C(COc2cccc(Nc3ncc(Cl)c(Nc4ccccc4NS(C)(=O)=O)n3)c2)C1 (centres unmarked)")
"< 100 nM"
>>> observed_measurement("CCOc1cccc(Nc2ncc(F)c(Nc3ccccc3NS(C)(=O)=O)n2)c1")
"1000 to 10000 nM"
>>> observed_measurement("CNC(=O)c1cccc(Nc2ncc(F)c(Nc3ccccc3NS(C)(=O)=O)n2)c1")
"1000 to 10000 nM"
>>> observed_measurement("CCCOc1cccc(Nc2ncc(F)c(Nc3cccc(C)c3NS(C)(=O)=O)n2)c1")
"1000 to 10000 nM"
>>> observed_measurement("COc1cc(Nc2ncc(F)c(Nc3ccccc3NS(C)(=O)=O)n2)ccc1C")
"100 to 1000 nM"
>>> observed_measurement("CC(=O)c1cccc(Nc2ncc(F)c(Nc3ccccc3NS(C)(=O)=O)n2)c1")
"100 to 1000 nM"
>>> observed_measurement("CS(=O)(=O)Nc1ccccc1Nc1nc(Nc2ccc(OCCN3CCCC3)cc2)ncc1F")
"100 to 1000 nM"
>>> observed_measurement("COc1cc(Nc2ncc(F)c(Nc3ccc(N4CCOCC4)cc3NS(C)(=O)=O)n2)cc(OC)c1OC")
"100 to 1000 nM"
>>> observed_measurement("CCN(CC)CCOc1ccc(Nc2ncc(Cl)c(Nc3ccccc3NS(C)(=O)=O)n2)cc1")
"< 100 nM"
>>> observed_measurement("COc1ccc(Nc2ncc(F)c(Nc3ccccc3NS(C)(=O)=O)n2)cc1")
"100 to 1000 nM"
